Hi there, I'd appreciate the recorded Ki for every entry that follows.
Molecular target: human recombinant glucocorticoid receptor (Homo sapiens)
Construct: This GR was a full-length steroid hormone receptor
Sequence (P04150 1-777): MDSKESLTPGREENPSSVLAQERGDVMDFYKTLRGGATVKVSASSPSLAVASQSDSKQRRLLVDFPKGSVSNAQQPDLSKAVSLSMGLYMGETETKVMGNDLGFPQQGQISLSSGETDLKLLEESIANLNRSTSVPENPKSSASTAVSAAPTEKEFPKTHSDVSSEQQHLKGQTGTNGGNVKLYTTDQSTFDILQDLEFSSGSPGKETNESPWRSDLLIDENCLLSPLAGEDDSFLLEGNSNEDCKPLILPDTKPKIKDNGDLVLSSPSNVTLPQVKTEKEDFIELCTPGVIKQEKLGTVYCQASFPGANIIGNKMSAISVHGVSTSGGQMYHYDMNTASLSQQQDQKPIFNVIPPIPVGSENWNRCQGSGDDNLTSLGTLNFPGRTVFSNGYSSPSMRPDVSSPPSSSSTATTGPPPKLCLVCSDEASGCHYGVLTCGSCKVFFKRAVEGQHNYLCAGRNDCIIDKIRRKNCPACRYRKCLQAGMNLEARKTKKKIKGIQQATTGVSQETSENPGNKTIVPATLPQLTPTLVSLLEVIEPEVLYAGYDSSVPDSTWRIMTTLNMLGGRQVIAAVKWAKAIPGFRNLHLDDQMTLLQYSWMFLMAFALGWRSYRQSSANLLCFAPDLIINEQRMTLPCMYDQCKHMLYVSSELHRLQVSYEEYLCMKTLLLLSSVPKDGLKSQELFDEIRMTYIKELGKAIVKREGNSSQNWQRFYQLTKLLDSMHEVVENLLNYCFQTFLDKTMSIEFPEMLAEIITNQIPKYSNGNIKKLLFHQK
Test: Glucocorticoid receptor binding displacement assay with 3H-dexamethasone (Example 22)
Conditions: Examples 1-15: 3H-dexamethasone displacement assay of Example 22; read-out: GR binding Ki

QUERY: Can you look up the measured Ki of CCOC(=O)[C@]12Cc3cnn(-c4ccc(F)cc4)c3C=C1CCN(S(=O)(=O)c1cccc(N3CC[C@@H](F)C3)c1)C2 for me?
RESULT: 0.5 to 1 nM

QUERY: Can you look up the measured Ki of COC[C@]12Cc3cnn(-c4ccc(F)cc4)c3C=C1CCN(S(=O)(=O)c1cccc(N3CC[C@H](F)C3)c1)C2 for me?
RESULT: 0.5 to 1 nM

QUERY: Can you look up the measured Ki of O=C(OCF)[C@]12Cc3cnn(-c4ccc(F)cc4)c3C=C1CCN(S(=O)(=O)c1cccc(N3CCCC3)c1)C2 for me?
RESULT: 0.5 to 1 nM

QUERY: Can you look up the measured Ki of O=S(=O)(c1ccc(N2CC[C@@H](F)C2)cc1)N1CCC2=Cc3c(cnn3-c3ccc(F)cc3)C[C@]2(COCC2CC2)C1 for me?
RESULT: < 0.5 nM

QUERY: Can you look up the measured Ki of O=C(OCF)[C@]12Cc3cnn(-c4ccc(F)cc4)c3C=C1CCN(S(=O)(=O)c1cccc(N3CC[C@@H](F)C3)c1)C2 for me?
RESULT: 0.5 to 1 nM

QUERY: Can you look up the measured Ki of CCOC(=O)[C@]12Cc3cnn(-c4ccc(F)cc4)c3C=C1CCN(S(=O)(=O)c1cccc(N3CCCC3)c1)C2 for me?
RESULT: 0.5 to 1 nM

QUERY: Can you look up the measured Ki of COC[C@]12Cc3cnn(-c4ccc(F)cc4)c3C=C1CCN(S(=O)(=O)c1ccc(N3CCCC3)cc1)C2 for me?
RESULT: 0.5 to 1 nM

QUERY: Can you look up the measured Ki of O=S(=O)(c1cccc(N2CCCC2)c1)N1CCC2=Cc3c(cnn3-c3ccc(F)cc3)C[C@]2(COCC2CC2)C1 for me?
RESULT: ≥ 1 nM

QUERY: Can you look up the measured Ki of O=S(=O)(c1cccc(N2CC[C@@H](F)C2)c1)N1CCC2=Cc3c(cnn3-c3ccc(F)cc3)C[C@]2(COCC2CC2)C1 for me?
RESULT: ≥ 1 nM

QUERY: Can you look up the measured Ki of COC(=O)[C@]12Cc3cnn(-c4ccc(F)cc4)c3C=C1CCN(S(=O)(=O)c1cccc(N3CC[C@@H](F)C3)c1)C2 for me?
RESULT: ≥ 1 nM

QUERY: Can you look up the measured Ki of COC[C@]12Cc3cnn(-c4ccc(F)cc4)c3C=C1CCN(S(=O)(=O)c1cccc(N3CCCC3)c1)C2 for me?
RESULT: 0.5 to 1 nM

QUERY: Can you look up the measured Ki of COC[C@]12Cc3cnn(-c4ccc(F)cc4)c3C=C1CCN(S(=O)(=O)c1ccc(N3CC[C@@H](F)C3)cc1)C2 for me?
RESULT: 0.5 to 1 nM

QUERY: Can you look up the measured Ki of O=S(=O)(c1ccc(N2CCCC2)cc1)N1CCC2=Cc3c(cnn3-c3ccc(F)cc3)C[C@]2(COCC2CC2)C1 for me?
RESULT: ≥ 1 nM

QUERY: Can you look up the measured Ki of O=S(=O)(c1cccc(N2CC[C@H](F)C2)c1)N1CCC2=Cc3c(cnn3-c3ccc(F)cc3)C[C@]2(COCC2CC2)C1 for me?
RESULT: 0.5 to 1 nM

QUERY: Can you look up the measured Ki of COC[C@]12Cc3cnn(-c4ccc(F)cc4)c3C=C1CCN(S(=O)(=O)c1cccc(N3CC[C@@H](F)C3)c1)C2 for me?
RESULT: ≥ 1 nM

The values you see were collected from patent US20130225633A1.
